OBSERVABLE: melting point

COMPOUND	melting point
CC(=O)NCc1ccc(CN2CCN(c3ccc(F)cc3)CC2)cc1[N+](=O)[O-]	112 to 114 °C
CC(=O)NCc1ccc(CN2CCN(c3ccc(NC(C)=O)cc3)CC2)cc1	225 to 226 °C
COc1cc(N(C)C)nc(N2CCN(Cc3ccc(CNC(C)=O)cc3)CC2)n1	115 to 118 °C

Next item in the queue.
**Q:** State the recorded melting point for this entry: CC(=O)NC(C)c1ccc(CN2CCN(c3nccs3)CC2)cc1 (centres unmarked)
**A:** 136 to 137 °C

* * *

# System: TNF-α production
# ASSAY_PROTOCOL: Effect on TNF-α production in mice (in vivo), LPS-induced
# RUN_CONDITIONS: serum TNF-α 90 min after LPS 500 μg/kg i.p.; test compound orally 30 min before LPS; ratio relative to test compound non-administration group
OBSERVABLE: TNF-α production (%)
The reply should be a number in %, with the unit left off.

Use these answered entries as a reference point.
> print(dat)
                                   compound  result
1  CC(=O)NCc1ccc(CN2CCN(c3nccs3)CC2)cc1 [Example 81, Hydrate]      11
2     CC(=O)NCc1ccc(CN2CCN(c3ncccn3)CC2)cc1      20
3     CC(=O)NCc1ccc(CN2CCN(c3ccccn3)CC2)cc1      11
4  CC(=O)NC(C)(C)c1ccc(CN2CCN(c3ccc(F)cc3)CC2)cc1      16

**Q:** State the recorded TNF-α production (%) for this entry: CC(=O)NC(C)c1ccc(CN2CCN(c3ccccc3)CC2)cc1 (stereo not drawn) [Example 58, Hydrate]
**A:** 19

**Q:** State the recorded TNF-α production (%) for this entry: CC(=O)NC(C)c1ccc(CN2CCN(c3ccc(F)cc3)CC2)cc1 (stereo not drawn)
**A:** 12
